Attribution: patent US20260193326A1

- Assay system: T1, AAV8
- T1 construct: also called adeno-associated virus serotype 8
- Assay comment: SPR, AAV on CM5 chip;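 further: surface plasmon resonance with AAV amine-coupled to the chip as ligand, nanobodies injected as analyte over a concentration series, rate constants and affinity fitted from binding curves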
pKd listing for selected binders.
In textbook form, pKd equals minus log to base ten of the concentration in mol/L.

Reference set, count: 3
A4-050 (VHH) VHH: VQLQESGGGLVQPGGSLRLSCAASGSSFVINTMGWYRQAPGKQRELVAAVTRGGSTNYADSVKGRFTISRDNAKNTVYLQMNSLRPEDTAVYYCHVDEVRQSSWTTSNLWGQGTQVTVSS = 8.61
A4-046 (VHH) VHH: VQLQESGGGLVQPGGSLRLSCAASGSRFSINTMGWYRQAPGKQRELVATVTRGGSTNYADSVKGRFTISRDNAKNTVYLQMNSLRPEDTAVYYCHVDEVRQSSWTTSNLWGQGTQVTVSS = 7.42
A4-018 (VHH) VHH: VQLQESGGGLVQAGGSLRLSCAASGSRFSINTMGWYRQAPGKQREFVATVTRGGNTNYAESVKGRFTISRDNAKNTVYLQMNSLRPEDTAVYYCHVDEVRDSSWTTSNIWGQGTQVTVSS = 7.46

Next binder, pKd to be filled in.
Q: Returns the measured pKd for the input binder. Input: A4-015 (VHH) VHH: VQLQESGGGLVQPGGSLRLSCAASGSIFSINLMGWYRQAAGKQRELVATITPGGNTNYAGSVKGRFTISRDNAKNTVYLQMNSLRPEDTAVYYCHVDEVRQSSWTTSNLWGQGTQVTVSS
Ans: 8.01
